Molecular target: Melanocortin receptor 4 (Homo sapiens)
Sequence (P32245 whole entry): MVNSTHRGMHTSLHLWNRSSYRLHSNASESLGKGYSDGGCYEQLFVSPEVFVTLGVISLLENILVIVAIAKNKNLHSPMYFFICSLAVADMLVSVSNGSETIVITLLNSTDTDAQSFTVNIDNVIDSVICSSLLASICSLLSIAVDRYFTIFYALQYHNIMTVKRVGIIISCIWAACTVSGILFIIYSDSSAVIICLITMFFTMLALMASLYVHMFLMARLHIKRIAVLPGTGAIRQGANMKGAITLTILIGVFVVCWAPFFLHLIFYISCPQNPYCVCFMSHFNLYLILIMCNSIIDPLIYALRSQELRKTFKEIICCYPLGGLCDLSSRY
Assay: Displacement of [125I]NDP-alphaMSH from human melanocortin 4 receptor expressed in CHOK1 cells
Format: cell-based, CHO-K1
Conditions: read-out: Ki
pKi: −log10 of the molar value.
measurement-label: pKi

Field: example entries. Status: answers known.
[
  {
    "smi": "CCN(CC)CCCn1c(Nc2ccc(C(C)=O)cc2)nc2ccc(C(=O)N(CCC(C)C)CCC(C)C)cc21",
    "tested-target": "Melanocortin receptor 4 (Homo sapiens)",
    "pKi": 8.10
  },
  {
    "smi": "COc1ccc(Nc2nc3ccc(C(=O)N(CCC(C)C)CCC(C)C)cc3n2CCCN2CCCCC2)cc1",
    "tested-target": "Melanocortin receptor 4 (Homo sapiens)",
    "pKi": 8.30
  },
  {
    "smi": "CCCN(CCC)C(=O)c1ccc2nc(Nc3cc(OC)c(OC)c(OC)c3)n(CCCN)c2c1",
    "tested-target": "Melanocortin receptor 4 (Homo sapiens)",
    "pKi": 4.77
  },
  {
    "smi": "CC(C)CCN(CCC(C)C)C(=O)c1ccc2nc(Nc3ccc(-c4ccccc4)cc3)n(CCCN3CCCCC3)c2c1",
    "tested-target": "Melanocortin receptor 4 (Homo sapiens)",
    "pKi": 8.28
  },
  {
    "smi": "CC(C)CCN(CCC(C)C)C(=O)c1ccc2nc(-c3cn(C)c4ccccc34)n(CCCN3CCCCC3)c2c1",
    "tested-target": "Melanocortin receptor 4 (Homo sapiens)",
    "pKi": 8.49
  }
]

I: CC(=O)c1ccc(Nc2nc3ccc(C(=O)N(CCC(C)C)CCC(C)C)cc3n2CCCN2CCCC2)cc1
II: CC(C)CCN(CCC(C)C)C(=O)c1ccc2nc(Nc3ccc(N4CCCCC4)cc3)n(CCCN3CCCCC3)c2c1
III: COC(=O)c1ccc(Nc2nc3ccc(C(=O)N(CCC(C)C)CCC(C)C)cc3n2CCCN2CCCCC2)cc1
Prompt: In this exercise, place the 3 compounds in ascending sequence of their recorded pKi. Reply with the item labels sorted in the order that was asked for.
Response: II, I, III
(II: 8.01, I: 8.31, III: 9.05)

a: COC(=O)c1ccc(-c2nc3ccc(C(=O)N(CCC(C)C)CCC(C)C)cc3n2CCCN2CCCCC2)cc1
b: CC(C)CCN(CCC(C)C)C(=O)c1ccc2nc(NCc3ccccc3)n(CCCN3CCCCC3)c2c1
c: CC(C)CCN(CCC(C)C)C(=O)c1ccc2nc(Nc3ccc(Oc4ccccc4)cc3)n(CCCN3CCCCC3)c2c1
d: CC(=O)c1ccc(Nc2nc3ccc(C(=O)N(CCC(C)C)CCC(C)C)cc3n2CCCCN)cc1
e: CC(=O)c1ccc(Nc2nc3ccc(C(=O)N(CCC(C)C)CCC(C)C)cc3n2CCCO)cc1
Prompt: Which order do these items take when sorted by rising pKi? List them. Please write the labels in the order that was asked for.
Response: e, d, a, b, c
(e: 5.64, d: 6.89, a: 7.35, b: 7.74, c: 8.68)

a: CCC(=O)c1ccc(Nc2nc3ccc(C(=O)N(CCC(C)C)CCC(C)C)cc3n2CCCN2CCCCC2)cc1
b: CC(C)CCN(CCC(C)C)C(=O)c1ccc2nc(Nc3cccc4[nH]ccc34)n(CCCN3CCCCC3)c2c1
c: CNCCCn1c(Nc2ccc(C(C)=O)cc2)nc2ccc(C(=O)N(CCC(C)C)CCC(C)C)cc21
Prompt: hey, can you rank those compounds up there by pKi? biggest number first please A complete answer lists every label in the requested sequence.
Response: a, b, c
(a: 8.57, b: 7.85, c: 7.29)

1: CC(=O)NCCNc1nc2ccc(C(=O)N(CCC(C)C)CCC(C)C)cc2n1CCCN1CCCCC1
2: CC(=O)c1ccc(Nc2nc3ccc(C(=O)N(CCC(C)C)CCC(C)C)cc3n2CCCN(C)C)cc1
Prompt: Please compare: 1 and 2 . Report which one has the smaller pKi value. Response format: the label of the selected entry.
Response: 1
